// provenance: the Immune Epitope Database (IEDB)

- target.entity: HLA-A*02:01
- run.description: IEDB peptide-MHC binding, cellular MHC/competitive/fluorescence; bounds were set here for any values at or beyond the usual limits of such assays
- particulars: source organism: Vaccinia virus WR
IC50 values by entry
test.readout: IC50

1) VTKVNNYDDT | ≥ 70 µM
2) LTASGGKVLI | ≥ 70 µM
3) TMDGDKLSKL | ≥ 70 µM
4) ITNILGGVL | ≥ 70 µM
5) IMSLNGKKHT | ≥ 70 µM
6) DAIKSNNHLT | ≥ 70 µM
7) PVHDILSGL | ≥ 70 µM
8) DLAIKQYGDI | ≥ 70 µM
9) KIKHKGMSFV | 15.8 µM
10) FIVISPMGKL | 20 µM
11) IVIYPNFSKA | 9.76 µM
12) TIDNIVTSLA | ≥ 70 µM
13) YASIINRDII | 7.11 µM
14) TIEDDKIVTM | 13.3 µM

---

- target.entity: HLA-A*02:01
- run.description: IEDB peptide-MHC binding, cellular MHC/competitive/fluorescence; bounds were set here for any values at or beyond the usual limits of such assays
- particulars: source organism: Vaccinia virus WR
test.readout: IC50 (µM)

1) KTPDYPLIDI | 5.55
2) NIVWEKKSL | 10.9
3) AAITDAAVA | 18.6
4) VTKQDELQAA | 14.3
5) TAATKRYPGV | 43.1

---

log10(IC50) values by entry
- target.entity: HLA-A*02:02
- run.description: IEDB peptide-MHC binding, purified MHC/competitive/radioactivity; bounds were set here for any values at or beyond the usual limits of such assays
- particulars: source organism: Vaccinia virus WR
test.readout: log10(IC50) (log10 of the value in nM)

1. FTSYKRFVT | 3.37
2. IMETIDPVYI | 1.46
3. VLALYSPPLI | 1.20
4. IQKDINITHT | 3.13
5. LLKETIQKDI | 3.49

---

- target.entity: HLA-A*02:02
- run.description: IEDB peptide-MHC binding, purified MHC/competitive/radioactivity; bounds were set here for any values at or beyond the usual limits of such assays
- particulars: source organism: SARS-CoV1
Cut-off 8 nM on IC50: below means Condition met, at or above means Condition not met.

1. LIDFYLCFL | Condition not met
2. MLSVVGFLV | Condition met
3. YLSSVLLAL | Condition met
4. KLLIVLTCI | Condition not met
5. FLTNKLLLFA | Condition met
6. LMSFTILCL | Condition met
7. HAFLCLFLL | Condition not met

---

- target.entity: HLA-A*02:01
- run.description: IEDB peptide-MHC binding, cellular MHC/competitive/fluorescence; bounds were set here for any values at or beyond the usual limits of such assays
- particulars: source organism: Vaccinia virus WR
test.readout: IC50

1) NIKNDVVIL | ≥ 70 µM
2) LAIKNYYRKT | ≥ 70 µM
3) ATDPDADAIA | ≥ 70 µM
4) RASTTENAA | ≥ 70 µM
5) AASKQQMLM | ≥ 70 µM

---

- target.entity: HLA-A*02:01
- run.description: IEDB peptide-MHC binding, purified MHC/competitive/radioactivity; bounds were set here for any values at or beyond the usual limits of such assays
- particulars: source organism: Vaccinia virus WR
pIC50: −log10 of the molar value.
Decide by pIC50: equal to or exceeding 7 means YES, less means NO.

1. LLLDYMTST | YES
2. TVGMLIYSM | NO
3. LISGSTFSI | NO
4. NIYCLEYINT | NO
5. YLYNKYSFKL | YES
6. SLIYYQNEVT | NO
7. SLEATFIDV | NO
8. FICWHSSEI | YES
9. IMFMLIFNV | YES
10. VVECLTVPNI | NO
11. FLRYLLFGI | YES
12. TLIDDPDNNL | NO
13. TLLCVLPAVV | YES
14. IMRNFLRSIA | NO
15. QQNNSFIIST | NO
16. LMPIRTDTT | NO
17. RQVSVKLLI | NO
18. KINPLLDEPL | NO
19. HIFYQLANV | YES
20. YLFGGFSTL | YES
21. YQDSDVSQEV | YES
22. ELTTVFIKYV | NO
23. TVLTSVDIET | NO
24. VTLQKVLHV | NO
25. NVDSTDELM | NO
26. VIKLVKSLV | NO
27. YIIKKNDIV | NO
28. LLNMRDLIVT | NO
29. QILDNAAKYV | NO
30. ILASIIDYV | YES
31. IVSHLRASTT | NO
32. DINVIGLIV | NO
33. PITDSLSFKL | NO
34. KVIKLVKSL | NO
35. FVSTMPVET | NO
36. LTVLGLGLSL | NO
37. ALMRRIAVV | YES
38. IQYRQQLEL | NO
39. ILANERYRSA | NO
40. MMIDDFGTA | YES
41. GMSIVCIVAA | NO
42. IVDSMIIGHI | NO
43. HIKTIAVSV | NO
44. ILSDDMLNI | YES
45. SMITMSAFLI | YES
46. EVVDMLSTYL | NO
47. FIIEVSNCV | YES
48. FMIEGLMTSL | YES
49. YANCSSISI | NO
50. ILLLIGICVA | NO
51. WVMDTLNGI | YES
52. FLDWIKDIM | YES
53. LLIHFLLSL | YES
54. LVFIKPPLI | YES
55. GLCNYGGIL | NO
56. VLEKKVCAIT | NO
57. LQISQCQRI | NO
58. MLIEVILTA | YES
59. SVMNFIPII | YES
60. VLEKKVCAI | NO
61. AIYKLGSSI | NO
62. STISWMMKL | YES
